Where do the numbers come from? From patent US20110065675A1.

# Measured target: human TNF-R1/TNFα (Homo sapiens, UniProt P01375+P19438)
# Sequence (P01375 77-233 limits assumed): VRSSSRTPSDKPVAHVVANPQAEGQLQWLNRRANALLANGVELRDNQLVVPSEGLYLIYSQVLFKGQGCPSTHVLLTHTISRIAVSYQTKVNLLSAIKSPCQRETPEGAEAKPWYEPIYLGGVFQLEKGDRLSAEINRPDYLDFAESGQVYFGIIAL
# Sequence (P19438 30-211 limits assumed): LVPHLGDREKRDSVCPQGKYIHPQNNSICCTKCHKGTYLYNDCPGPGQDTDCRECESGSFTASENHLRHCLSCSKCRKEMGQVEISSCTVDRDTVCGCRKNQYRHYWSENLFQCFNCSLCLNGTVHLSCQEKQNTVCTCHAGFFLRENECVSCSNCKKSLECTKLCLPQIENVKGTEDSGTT
# Method description: Specificity test: human TNF-R1/TNFα binding inhibition assay
# Recorded conditions: cell-free binding; read-out: Human TNFR1/TNFα IC50
Reported endpoint: IC50 (µM)

Guide cases for IC50, answers given:
>  <Molecule>
O=C(Nc1ccc2c(O)c(N=Nc3ccc(N=Nc4ccc(S(=O)(=O)[O-])cc4)cc3S(=O)(=O)[O-])c(S(=O)(=O)[O-])cc2c1)Nc1ccc2c(O)c(N=Nc3ccc(N=Nc4ccc(S(=O)(=O)[O-])cc4)cc3S(=O)(=O)[O-])c(S(=O)(=O)[O-])cc2c1.[Na+].[Na+].[Na+].[Na+].[Na+].[Na+]

>  <Measured target>
human TNF-R1/TNFα (Homo sapiens, UniProt P01375+P19438)

>  <IC50 (µM)>
1430

$$$$
>  <Molecule>
Nc1cc(N)c(N=Nc2cccc3c(S(=O)(=O)O)cccc23)cc1N=Nc1cc([N+](=O)[O-])ccc1O.[Na]

>  <Measured target>
human TNF-R1/TNFα (Homo sapiens, UniProt P01375+P19438)

>  <IC50 (µM)>
86

$$$$
>  <Molecule>
Nc1ccc2cc(S(=O)(=O)[O-])cc(O)c2c1N=Nc1ccc(NC(=O)Nc2ccc(N=Nc3c(N)ccc4cc(S(=O)(=O)[O-])cc(O)c34)c(S(=O)(=O)[O-])c2)cc1S(=O)(=O)[O-].[Na+].[Na+].[Na+].[Na+]

>  <Measured target>
human TNF-R1/TNFα (Homo sapiens, UniProt P01375+P19438)

>  <IC50 (µM)>
322

$$$$
>  <Molecule>
Nc1ccc2c(O)c(N=Nc3ccc(N=Nc4ccc(N=Nc5cc(S(=O)(=O)[O-])c6cccc(S(=O)(=O)[O-])c6c5)c5ccccc45)c4ccc(S(=O)(=O)[O-])cc34)c(S(=O)(=O)[O-])cc2c1.[Na+].[Na+].[Na+].[Na+]

>  <Measured target>
human TNF-R1/TNFα (Homo sapiens, UniProt P01375+P19438)

>  <IC50 (µM)>
98.5

$$$$
>  <Molecule>
Cc1ccc(C(=O)Nc2ccc(S(=O)(=O)O)c3cc(S(=O)(=O)O)cc(S(=O)(=O)O)c23)cc1NC(=O)c1cccc(NC(=O)Nc2cccc(C(=O)Nc3cc(C(=O)Nc4ccc(S(=O)(=O)O)c5cc(S(=O)(=O)O)cc(S(=O)(=O)O)c45)ccc3C)c2)c1 [Suramin, reference compound]

>  <Measured target>
human TNF-R1/TNFα (Homo sapiens, UniProt P01375+P19438)

>  <IC50 (µM)>
486

$$$$

1 = Nc1c(N=Nc2cccc([N+](=O)[O-])c2)c(S(=O)(=O)[O-])cc2cc(S(=O)(=O)[O-])c(N=Nc3ccccc3)c(O)c12.[Na+].[Na+]
2 = Nc1c(/N=N/c2ccc(-c3ccc(/N=N/c4cc(S(=O)(=O)O)c5ccccc5c4N)cc3)cc2)cc(S(=O)(=O)O)c2ccccc12
Given the listed records, identify the one among 1 and 2 with higher IC50. Indicate your choice by writing its label. 1

====

# Measured target: human TNF-R1/TNFα (Homo sapiens, UniProt P01375+P19438)
# Method description: Specificity test: human TNF-R1/TNFα binding inhibition assay
# Recorded conditions: cell-free binding; read-out: Human TNFR1/TNFα IC50
Reported endpoint: IC50 (µM)

Guide cases for IC50, answers given:
>  <Compound>
Cc1cc(S(=O)(=O)[O-])ccc1N=Nc1ccc(N=Nc2c(O)ccc3cccc(S(=O)(=O)[O-])c23)c(C)c1.[Na+].[Na+] [Crocein scarlet 7B, crocein scarlet 7B]

>  <IC50 (µM)>
168

$$$$
>  <Compound>
O=C(Nc1ccc(C(=O)Nc2ccc(C(=O)Nc3ccc(S(=O)(=O)O)c4cc(S(=O)(=O)O)cc(S(=O)(=O)O)c34)cc2)cc1)Nc1ccc(C(=O)Nc2ccc(C(=O)Nc3ccc(S(=O)(=O)O)c4cc(S(=O)(=O)O)cc(S(=O)(=O)O)c34)cc2)cc1 [NF279]

>  <IC50 (µM)>
438

$$$$
>  <Compound>
O.O=C([O-])c1ccccc1-c1c2cc(I)c(=O)c(I)c-2oc2c(I)c([O-])c(I)cc12.[Na+].[Na+] [Erythrosin B (FD&C red 3), Erythrosin B, reference compound]

>  <IC50 (µM)>
9

$$$$

P = Cc1ccc(S(=O)(=O)Oc2ccc(N=Nc3ccc(-c4ccc(N=Nc5c(O)ccc6cc(S(=O)(=O)[O-])cc(S(=O)(=O)[O-])c56)c(C)c4)cc3C)cc2)cc1.[Na+].[Na+] [Acid red 114, C.I. acid red 114]
Q = COc1ccccc1NC(=O)C(N=Nc1ccc(-c2nc3ccc(C)c(S(=O)(=O)[O-])c3s2)cc1S(=O)(=O)[O-])C(C)=O.[Na+].[Na+] (stereo not drawn) [Direct yellow 27, direct yellow 27]
Given the listed records, identify the one among P and Q with higher IC50. Indicate your choice by writing its label. Q

====

# Measured target: human CD40/CD154 (Homo sapiens)
# Construct: CD154 (soluble human, FLAG-tagged, recombinant from Alexis Biochemicals; MW=18 kDa); purchased Alexis Biochemicals
# Method description: Human CD40/CD154 binding inhibition assay (cell-free, plate-based)
# Recorded conditions: cell-free binding; read-out: Human CD40/CD154 IC50
pIC50: −log10 of the molar value.
Reported endpoint: pIC50

Guide cases for pIC50, answers given:
>  <Compound>
COc1cc(-c2ccc(N=Nc3c(S(=O)(=O)[O-])cc4cc(S(=O)(=O)[O-])cc(N)c4c3O)c(OC)c2)ccc1N=Nc1c(S(=O)(=O)[O-])cc2cc(S(=O)(=O)[O-])cc(N)c2c1O.[Na+].[Na+].[Na+].[Na+]

>  <Recorded result>
5.85

$$$$
>  <Compound>
Cc1ccc(S(=O)(=O)Oc2ccc(N=Nc3ccc(-c4ccc(N=Nc5c(O)ccc6cc(S(=O)(=O)[O-])cc(S(=O)(=O)[O-])c56)c(C)c4)cc3C)cc2)cc1.[Na+].[Na+]

>  <Recorded result>
5.55

$$$$
>  <Compound>
O.O=C([O-])c1ccccc1-c1c2cc(I)c(=O)c(I)c-2oc2c(I)c([O-])c(I)cc12.[Na+].[Na+] [Erythrosin B (FD&C red 3), Erythrosin B, reference compound]

>  <Recorded result>
5.72

$$$$
>  <Compound>
Nc1ccc(N=Nc2ccc(-c3ccc(N=Nc4c(S(=O)(=O)[O-])cc5cc(S(=O)(=O)[O-])c(N=Nc6ccccc6)c(O)c5c4N)cc3)cc2)c(N)c1.[Na+].[Na+]

>  <Recorded result>
5.96

$$$$

a = Nc1c(/N=N/c2ccc(-c3ccc(/N=N/c4cc(S(=O)(=O)O)c5ccccc5c4N)cc3)cc2)cc(S(=O)(=O)O)c2ccccc12
b = Nc1c(N=Nc2cccc([N+](=O)[O-])c2)c(S(=O)(=O)[O-])cc2cc(S(=O)(=O)[O-])c(N=Nc3ccccc3)c(O)c12.[Na+].[Na+]
Hi there, can you help? I need to know whether a or b has lower measured pIC50. Indicate your choice by writing its label. b

====

# Measured target: human CD40/CD154 (Homo sapiens)
# Construct: CD154 (soluble human, FLAG-tagged, recombinant from Alexis Biochemicals; MW=18 kDa); purchased Alexis Biochemicals
# Sequence (P29965 113-261 limits assumed): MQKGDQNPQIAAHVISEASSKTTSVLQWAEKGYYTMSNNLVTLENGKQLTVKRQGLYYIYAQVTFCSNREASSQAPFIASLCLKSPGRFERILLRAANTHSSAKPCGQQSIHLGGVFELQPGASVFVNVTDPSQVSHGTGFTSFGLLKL
# Method description: Human CD40/CD154 binding inhibition assay (cell-free, plate-based)
# Recorded conditions: log of IC50, cell-free binding
Reported endpoint: Human CD40/CD154 log IC50

>  <Molecule>
Nc1ccc(N=Nc2ccc(-c3ccc(N=Nc4c(S(=O)(=O)[O-])cc5cc(S(=O)(=O)[O-])c(N=Nc6ccccc6)c(O)c5c4N)cc3)cc2)c(N)c1.[Na+].[Na+] [Chlorazol black (direct black 38), direct black 38]

>  <Measured target>
human CD40/CD154 (Homo sapiens)

>  <Human CD40/CD154 log IC50>
−5.95

$$$$
>  <Molecule>
Nc1ccc2c(O)c(N=Nc3ccc(N=Nc4ccc(N=Nc5cc(S(=O)(=O)[O-])c6cccc(S(=O)(=O)[O-])c6c5)c5ccccc45)c4ccc(S(=O)(=O)[O-])cc34)c(S(=O)(=O)[O-])cc2c1.[Na+].[Na+].[Na+].[Na+] [Direct blue 71, direct blue 71]

>  <Measured target>
human CD40/CD154 (Homo sapiens)

>  <Human CD40/CD154 log IC50>
−5.68

$$$$
>  <Molecule>
Nc1ccc2cc(S(=O)(=O)[O-])cc(O)c2c1N=Nc1ccc(NC(=O)Nc2ccc(N=Nc3c(N)ccc4cc(S(=O)(=O)[O-])cc(O)c34)c(S(=O)(=O)[O-])c2)cc1S(=O)(=O)[O-].[Na+].[Na+].[Na+].[Na+] [Direct red 75 (chlorazol fast pink), direct red 75]

>  <Measured target>
human CD40/CD154 (Homo sapiens)

>  <Human CD40/CD154 log IC50>
−5.32

$$$$
>  <Molecule>
O=C(Nc1ccc2c(O)c(N=Nc3ccc(N=Nc4ccc(S(=O)(=O)[O-])cc4)cc3)c(S(=O)(=O)[O-])cc2c1)c1ccccc1.[Na+].[Na+] [Direct red 81, direct red 81]

>  <Measured target>
human CD40/CD154 (Homo sapiens)

>  <Human CD40/CD154 log IC50>
−4.87

$$$$
>  <Molecule>
O=C(Nc1ccc2c(O)c(N=Nc3ccc(N=Nc4ccc(S(=O)(=O)[O-])cc4)cc3S(=O)(=O)[O-])c(S(=O)(=O)[O-])cc2c1)Nc1ccc2c(O)c(N=Nc3ccc(N=Nc4ccc(S(=O)(=O)[O-])cc4)cc3S(=O)(=O)[O-])c(S(=O)(=O)[O-])cc2c1.[Na+].[Na+].[Na+].[Na+].[Na+].[Na+] [Direct red 80, direct red 80]

>  <Measured target>
human CD40/CD154 (Homo sapiens)

>  <Human CD40/CD154 log IC50>
−5.73

$$$$
>  <Molecule>
O=S(=O)([O-])c1cc(S(=O)(=O)[O-])c2c(N=Nc3ccc(N=Nc4ccccc4)cc3)c(O)ccc2c1.[Na+].[Na+] [Brilliant crocein (crocein scarlet MOO), Brilliant crocein, reference compound]

>  <Measured target>
human CD40/CD154 (Homo sapiens)

>  <Human CD40/CD154 log IC50>
−3.85

$$$$
>  <Molecule>
CCOc1ccc(N=Nc2ccc(-c3ccc(N=Nc4c(O)ccc5cc(S(=O)(=O)[O-])cc(S(=O)(=O)[O-])c45)cc3)cc2)cc1.[Na+].[Na+] [Direct red 37, direct red 37]

>  <Measured target>
human CD40/CD154 (Homo sapiens)

>  <Human CD40/CD154 log IC50>
−4.88

$$$$
